We begin with a simple list: items and their reported thermal stability score.
System: HeLa Kyoto
Assay: thermal stability score vs G1/S (z-score of summed log2 fold changes over temperatures); higher = more thermally stable than in G1/S
Settings: cell cycle stage: mitosis
experimental readout: thermal stability score

{"columns": ["sequence entry", "reported"],
 "data": [
  ["MVDYSVWDHIEVSDDEDETHPNIDTASLFRWRHQARVERMEQFQKEKEELDRGCRECKRKVAECQRKLKELEVAEGGKAELERLQAEAQQLRKEERSWEQKLEEMRKKEKSMPWNVDTLSKDGFSKSMVNTKPEKTEEDSEEVREQKHKTFVEKYEKQIKHFGMLRRWDDSQKYLSDNVHLVCEETANYLVIWCIDLEVEEKCALMEQVAHQTIVMQFILELAKSLKVDPRACFRQFFTKIKTADRQYMEGFNDELEAFKERVRGRAKLRIEKAMKEYEEEERKKRLGPGGLDPVEVYESLPEELQKCFDVKDVQMLQDAISKMDPTDAKYHMQRCIDSGLWVPNSKASEAKEGEEAGPGDPLLEAVPKTGDEKDVSV [CDC37]", -0.732],
  ["MEPAVSEPMRDQVARTHLTEDTPKVNADIEKVNQNQAKRCTVIGGSGFLGQHMVEQLLARGYAVNVFDIQQGFDNPQVRFFLGDLCSRQDLYPALKGVNTVFHCASPPPSSNNKELFYRVNYIGTKNVIETCKEAGVQKLILTSSASVIFEGVDIKNGTEDLPYAMKPIDYYTETKILQERAVLGANDPEKNFLTTAIRPHGIFGPRDPQLVPILIEAARNGKMKFVIGNGKNLVDFTFVENVVHGHILAAEQLSRDSTLGGKAFHITNDEPIPFWTFLSRILTGLNYEAPKYHIPYWVAYYLALLLSLLVMVISPVIQLQPTFTPMRVALAGTFHYYSCERAKKAMGYQPLVTMDDAMERTVQSFRHLRRVK [NSDHL]", 1.38]
]}

----------
Tested on: HeLa Kyoto
Assay: thermal stability score vs G1/S (z-score of summed log2 fold changes over temperatures); higher = more thermally stable than in G1/S
Settings: cell cycle stage: mitosis
We begin with a simple list: items and their reported thermal stability score.
experimental readout: thermal stability score

{"columns": ["sequence entry", "experimental readout", "reported"],
 "data": [
  ["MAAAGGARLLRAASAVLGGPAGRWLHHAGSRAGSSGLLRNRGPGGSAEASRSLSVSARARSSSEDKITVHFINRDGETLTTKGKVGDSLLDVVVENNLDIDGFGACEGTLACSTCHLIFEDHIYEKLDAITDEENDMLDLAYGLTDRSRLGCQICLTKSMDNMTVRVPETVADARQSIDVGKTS [FDX1]", "thermal stability score", -1.73],
  ["MLPLSIKDDEYKPPKFNLFGKISGWFRSILSDKTSRNLFFFLCLNLSFAFVELLYGIWSNCLGLISDSFHMFFDSTAILAGLAASVISKWRDNDAFSYGYVRAEVLAGFVNGLFLIFTAFFIFSEGVERALAPPDVHHERLLLVSILGFVVNLIGIFVFKHGGHGHSHGSGHGHSHSLFNGALDQAHGHVDHCHSHEVKHGAAHSHDHAHGHGHFHSHDGPSLKETTGPSRQILQGVFLHILADTLGSIGVIASAIMMQNFGLMIADPICSILIAILIVVSVIPLLRESVGILMQRTPPLLENSLPQCYQRVQQLQGVYSLQEQHFWTLCSDVYVGTLKLIVAPDADARWILSQTHNIFTQAGVRQLYVQIDFAAM [SLC30A7]", "thermal stability score", -1.45],
  ["MGSRDHLFKVLVVGDAAVGKTSLVQRYSQDSFSKHYKSTVGVDFALKVLQWSDYEIVRLQLWDIAGQERFTSMTRLYYRDASACVIMFDVTNATTFSNSQRWKQDLDSKLTLPNGEPVPCLLLANKCDLSPWAVSRDQIDRFSKENGFTGWTETSVKENKNINEAMRVLIEKMMRNSTEDIMSLSTQGDYINLQTKSSSWSCC [RAB29]", "thermal stability score", -0.372],
  ["MGLSPSAPAVAVQASNASASPPSGCPMHEGKMKGCPVNTEPSGPTCEKKTYSVPAHQERAYEYVECPIRGTAAENKENLDPSNLMPPPNQTPAPDQPFALSTVREESSIPRADSEKKWVYPSEQMFWNAMLKKGWKWKDEDISQKDMYNIIRIHNQNNEQAWKEILKWEALHAAECPCGPSLIRFGGKAKEYSPRARIRSWMGYELPFDRHDWIINRCGTEVRYVIDYYDGGEVNKDYQFTILDVRPALDSLSAVWDRMKVAWWRWTS [HCCS]", "thermal stability score", -0.977],
  ["MSDLQAAEGPGSWSPTARPGSAGGVGDCQGVEGSQAAASENEDLENKDTSLLASATDPEPCSSPHRPQMVSPVSKDATEDLRKATGPLEAQALVKQDLLPADQAQVLNEMAKYQVPQRSGDIVMIQSEHTGAIDVLSADLESADLLGDHRKVSPPLMAPPCIWTFAKVKEFKSKLGKEKNSRLVVKRGEVVTIRVPTHPEGKRVCWEFATDDYDIGFGVYFDWTPVTSTDITVQVSDSSDDEDEEEEEEEEIEEPVPAGDVERGSRSSLRGRYGEVMPVYRRDSHRDVQAGSHDYPGEGIYLLKFDNSYSLLRNKTLYFHIYYTS [TMED8]", "thermal stability score", -0.616],
  ["MFRAAAPGQLRRAASLLRFQSTLVIAEHANDSLAPITLNTITAATRLGGEVSCLVAGTKCDKVAQDLCKVAGIAKVLVAQHDVYKGLLPEELTPLILATQKQFNYTHICAGASAFGKNLLPRVAAKLEVAPISDIIAIKSPDTFVRTIYAGNALCTVKCDEKVKVFSVRGTSFDAAATSGGSASSEKASSTSPVEISEWLDQKLTKSDRPELTGAKVVVSGGRGLKSGENFKLLYDLADQLHAAVGASRAAVDAGFVPNDMQVGQTGKIVAPELYIAVGISGAIQHLAGMKDSKTIVAINKDPEAPIFQVADYGIVADLFKVVPEMTEILKKK [ETFA]", "thermal stability score", -1.76],
  ["MSTGGDFGNPLRKFKLVFLGEQSVGKTSLITRFMYDSFDNTYQATIGIDFLSKTMYLEDRTVRLQLWDTAGQERFRSLIPSYIRDSTVAVVVYDITNVNSFQQTTKWIDDVRTERGSDVIIMLVGNKTDLADKRQVSIEEGERKAKELNVMFIETSAKAGYNVKQLFRRVAAALPGMESTQDRSREDMIDIKLEKPQEQPVSEGGCSC [RAB6A]", "thermal stability score", -6.05],
  ["MTDGILGKAATMEIPIHGNGEARQLPEDDGLEQDLQQVMVSGPNLNETSIVSGGYGGSGDGLIPTGSGRHPSHSTTPSGPGDEVARGIAGEKFDIVKKWGINTYKCTKQLLSERFGRGSRTVDLELELQIELLRETKRKYESVLQLGRALTAHLYSLLQTQHALGDAFADLSQKSPELQEEFGYNAETQKLLCKNGETLLGAVNFFVSSINTLVTKTMEDTLMTVKQYEAARLEYDAYRTDLEELSLGPRDAGTRGRLESAQATFQAHRDKYEKLRGDVAIKLKFLEENKIKVMHKQLLLFHNAVSAYFAGNQKQLEQTLQQFNIKLRPPGAEKPSWLEEQ [ARFIP2]", "thermal stability score", -2.87],
  ["MAASRWARKAVVLLCASDLLLLLLLLPPPGSCAAEGSPGTPDESTPPPRKKKKDIRDYNDADMARLLEQWEKDDDIEEGDLPEHKRPSAPVDFSKIDPSKPESILKMTKKGKTLMMFVTVSGSPTEKETEEITSLWQGSLFNANYDVQRFIVGSDRAIFMLRDGSYAWEIKDFLVGQDRCADVTLEGQVYPGKGGGSKEKNKTKQDKGKKKKEGDLKSRSSKEENRAGNKREDL [MESDC2]", "thermal stability score", 2.22],
  ["MMCGAPSATQPATAETQHIADQVRSQLEEKENKKFPVFKAVSFKSQVVAGTNYFIKVHVGDEDFVHLRVFQSLPHENKPLTLSNYQTNKAKHDELTYF [CSTB]", "thermal stability score", -3.83],
  ["MADSELQLVEQRIRSFPDFPTPGVVFRDISPVLKDPASFRAAIGLLARHLKATHGGRIDYIAGLDSRGFLFGPSLAQELGLGCVLIRKRGKLPGPTLWASYSLEYGKAELEIQKDALEPGQRVVVVDDLLATGGTMNAACELLGRLQAEVLECVSLVELTSLKGREKLAPVPFFSLLQYE [APRT]", "thermal stability score", 2.38]
]}

----------
System: HeLa Kyoto;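 note: synchronized HeLa Kyoto cells, proteins quantified by TMT10plex mass spectrometry, three biological replicates, mitosis taken 0.5 h after nocodazole release, G1/S directly after double thymidine block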
Test: thermal stability score vs G1/S (z-score of summed log2 fold changes over temperatures); higher = more thermally stable than in G1/S
Details: cell cycle stage: early G1 (4.5 h after nocodazole release)

{"columns": ["sequence entry", "thermal stability score"],
 "data": [
  ["MAVADLALIPDVDIDSDGVFKYVLIRVHSAPRSGAPAAESKEIVRGYKWAEYHADIYDKVSGDMQKQGCDCECLGGGRISHQSQDKKIHVYGYSMAYGPAQHAISTEKIKAKYPDYEVTWANDGY [PHPT1]", -0.712],
  ["MAAAGGGGGGAAAAGRAYSFKVVLLGEGCVGKTSLVLRYCENKFNDKHITTLQASFLTKKLNIGGKRVNLAIWDTAGQERFHALGPIYYRDSNGAILVYDITDEDSFQKVKNWVKELRKMLGNEICLCIVGNKIDLEKERHVSIQEAESYAESVGAKHYHTSAKQNKGIEELFLDLCKRMIETAQVDERAKGNGSSQPGTARRGVQIIDDEPQAQTSGGGCCSSG [RAB21]", -1.73],
  ["MKGSRIELGDVTPHNIKQLKRLNQVIFPVSYNDKFYKDVLEVGELAKLAYFNDIAVGAVCCRVDHSQNQKRLYIMTLGCLAPYRRLGIGTKMLNHVLNICEKDGTFDNIYLHVQISNESAIDFYRKFGFEIIETKKNYYKRIEPADAHVLQKNLKVPSGQNADVQKTDN [NAA50]", 0.726],
  ["MVRFKHRYLLCELVSDDPRCRLSLDDRVLSSLVRDTIARVHGTFGAAACSIGFAVRYLNAYTGIVLLRCRKEFYQLVWSALPFITYLENKGHRYPCFFNTLHVGGTIRTCQKFLIQYNRRQLLILLQNCTDEGEREAIQKSVTRSCLLEEEEESGEEAAEAME [POP5]", -0.00794],
  ["MAQPPPDVEGDDCLPAYRHLFCPDLLRDKVAFITGGGSGIGFRIAEIFMRHGCHTVIASRSLPRVLTAARKLAGATGRRCLPLSMDVRAPPAVMAAVDQALKEFGRIDILINCAAGNFLCPAGALSFNAFKTVMDIDTSGTFNVSRVLYEKFFRDHGGVIVNITATLGNRGQALQVHAGSAKAAVDAMTRHLAVEWGPQNIRVNSLAPGPISGTEGLRRLGGPQASLSTKVTASPLQRLGNKTEIAHSVLYLASPLASYVTGAVLVADGGAWLTFPNGVKGLPDFASFSAKL [DECR2]", 1.32],
  ["MAESPTEEAATAGAGAAGPGASSVAGVVGVSGSGGGFGPPFLPDVWAAAAAAGGAGGPGSGLAPLPGLPPSAAAHGAALLSHWDPTLSSDWDGERTAPQCLLRIKRDIMSIYKEPPPGMFVVPDTVDMTKIHALITGPFDTPYEGGFFLFVFRCPPDYPIHPPRVKLMTTGNNTVRFNPNFYRNGKVCLSILGTWTGPAWSPAQSISSVLISIQSLMTENPYHNEPGFEQERHPGDSKNYNECIRHETIRVAVCDMMEGKCPCPEPLRGVMEKSFLEYYDFYEVACKDRLHLQGQTMQDPFGEKRGHFDYQSLLMRLGLIRQKVLERLHNENAEMDSDSSSSGTETDLHGSLRV [UBE2Z]", -0.171]
]}

Hello, the source for this data is the supplement of paper PMC5998384, in case you need it.
